Test system: C. elegans
Experiment: microbe, parasite or virus in culture
Settings: Caenorhabditis elegans, 0 h, read-out: Percentage of motility inhibition 0 h, Table S2, C. elegans SS assay, 110 μM, 0 h, averages of 4 data points
# cutoff 20% applies to inhibition at 110 µM; >= gives Met, < gives Not met

Some solved entries appear below for comparison.
{"compound": "CC(C)=CCC[C@](C)(O)[C@H]1CC[C@]2(C)[C@@H]1[C@H](O)C[C@@H]1[C@@]3(C)CC[C@H](O)C(C)(C)[C@@H]3[C@@H](O[C@@H]3O[C@H](CO)[C@@H](O)[C@H](O)[C@H]3O[C@@H]3O[C@@H](C)[C@H](O)[C@@H](O)[C@H]3O)C[C@]12C [Ginsenoside Rg2]", "class_label": "Not met"}
{"compound": "O=C(O)c1ccncc1 [Isonicotinic acid]", "class_label": "Not met"}
{"compound": "NC[C@H]1O[C@H](O[C@H]2[C@H](O)[C@@H](O[C@H]3O[C@H](CO)[C@@H](O)[C@H](N)[C@H]3O)[C@H](N)C[C@@H]2N)[C@H](N)[C@@H](O)[C@@H]1O [Bekanamycin]", "class_label": "Met"}
{"compound": "[H]/N=C(/N)NS(=O)(=O)c1ccc(N)cc1 [Sulfaguanidine]", "class_label": "Met"}
{"compound": "Cc1cc(O)cc(C)c1Cl [Chloroxylenol, reference compound]", "class_label": "Met"}
{"compound": "COc1cc(O)c2c(=O)cc(-c3ccc(OC)c(-c4c(O)cc(O)c5c(=O)cc(-c6ccc(O)cc6)oc45)c3)oc2c1 [Ginkgetin]", "class_label": "Not met"}
{"compound": "CC(C)(C)NC(=O)N[C@H](C(=O)N1C[C@H]2[C@@H]([C@H]1C(=O)NC(CC1CCC1)C(=O)C(N)=O)C2(C)C)C(C)(C)C (stereo partly shown) [Boceprevir]", "class_label": "Met"}
{"compound": "CC[C@H]1[C@@H]2C[C@H]3[C@@H]4N(C)c5ccccc5[C@]45C[C@@H]([C@H]2[C@H]5O)N3[C@@H]1O [Ajmaline]", "class_label": "Not met"}

Asked: Assess whether reported inhibition at 110 µM for CC[C@H]1OC(=O)[C@H](C)[C@@H](O[C@H]2C[C@@](C)(OC)[C@@H](O)[C@H](C)O2)[C@H](C)[C@@H](O[C@@H]2O[C@H](C)C[C@H](N(C)C)[C@H]2O)[C@](C)(O)C[C@@H](C)CN(C)[C@H](C)[C@@H](O)[C@]1(C)O [Azithromycin] sits at 20% or higher.
Given back: Met

Asked: Do the same for CC(=O)NC[C@H]1CN(c2ccc(N3CCSCC3)c(F)c2)C(=O)O1 [Sutezolid] please
Given back: Not met

Asked: # repeat for Cc1cn([C@H]2O[C@@H](CO)[C@H](O)[C@H]2F)c(=O)[nH]c1=O [Clevudine]
Given back: Not met

Asked: # iterate: O=c1c(O)c(-c2cc(O)c(O)c(O)c2)oc2cc(O)ccc12 [Robinetin]
Given back: Met

Asked: Now give it for CCCCCCCCCC(=O)O[C@H]1CC[C@H]2[C@@H]3CCC4=CC(=O)CC[C@@H]4[C@H]3CC[C@]12C [Nandrolone decanoate] too.
Given back: Met

* * *

Tested on: C. elegans
Experiment: microbe, parasite or virus in culture
Conditions: Caenorhabditis elegans, 24 h, read-out: Percentage of motility inhibition 24 h, Table S2, C. elegans SS assay, 110 μM, 24 h, averages of 4 data points
quantity_measured: inhibition at 110 µM

// solved cases for inhibition at 110 µM follow
{"mol": "Nc1ccc(S(=O)(=O)c2ccc(N)cc2)cc1", "target_or_system": "C. elegans", "inhibition at 110 µM": "24%"}
{"mol": "O=c1c(-c2ccc(O)cc2)coc2cc(O)cc(O)c12", "target_or_system": "C. elegans", "inhibition at 110 µM": "2%"}
{"mol": "COc1ccc(-c2cc(=O)c3c(OC)c(OC)c(OC)c(OC)c3o2)cc1OC", "target_or_system": "C. elegans", "inhibition at 110 µM": "0%"}

Asked: Return reported inhibition at 110 µM; argument: "OC[C@H]1O[C@@H](Oc2ccc3c(c2)OC[C@H]2c4cc5c(cc4O[C@@H]32)OCO5)[C@H](O)[C@@H](O)[C@@H]1O"
Given back: 0%
